Taken from ChEMBL document CHEMBL1201862.

System: M14
Experimental Protocol: NCI tumour cell line growth inhibition, 48 h
Calls of active or inactive are those of the source. No stated cut-off is given here; in the data, active = GI50 up to about 1.1 µM and inactive = higher.
Write down the outcome that applies. Available outcomes: class 1 for active, class 0 for inactive

Answered examples (2):
- O=c1oc2ccccc2c(Nc2ccc3c(c2)Sc2ccccc2O3)c1[N+](=O)[O-]: class 0
- CC(C)C(=O)Cc1ccc2ccccc2n1: class 0

Each compound tested received a call. Report the one for O=C(C(=C(I)I)c1ccccc1)c1ccccc1 . class 0

Each compound tested received a call. Report the one for CCOC(=O)C1=NOC2(C=C(Br)C(=O)C(Br)=C2)C1 . class 0

====

Tested on: RXF 631
Experimental Protocol: NCI tumour cell line growth inhibition, 48 h
Activity calls are given as the source filed them. Rule as the data show it: active = GI50 up to about 1.1 µM and inactive = higher.
Test Readout: GI50

Example entries and their recorded answers appear below.
• CCC12CC[C@H](C#N)N3CCc4c(n(c5ccccc45)C(=O)C1)C32 (stereo not given in full) = 16.4 µM (inactive)
• Nc1ccc(S(=O)(=O)Nc2cnc3ccccc3n2)cc1 = > 100 µM (inactive)
• CC(C)(O)[C@@H]1CC[C@@]2(C)CCCC(O)C2(O)C1 (stereo not given in full) = > 100 µM (inactive)
• NC(=O)OCC(COc1ccc(Cl)cc1)OC(=O)c1cc([N+](=O)[O-])cc([N+](=O)[O-])c1 (stereo not given) = > 100 µM (inactive)
• CCOC(=O)c1cn(Cc2ccccc2)c(=O)n1Cc1ccccc1 = > 100 µM (inactive)

Count: 2. Required value per item: GI50.
1. COc1cc(C(C)c2cc3c(cc2OCCOCCOc2cc4c(cc2C(C)c2cc(OC)c(OC)c(OC)c2)OCO4)OCO3)cc(OC)c1OC (stereo not given)
2. COc1ccc(Cc2c3cc(O)c([O-])cc3cc[n+]2C)cc1

1. > 10 µM (inactive)
2. 6.49 µM (inactive)

Count: 2. Required value per item: GI50.
1. CCN(CC)CCO[Si](OCCN(CC)CC)(OCCN(CC)CC)OCCN(CC)CC
2. O=c1c2ccccc2nc(-c2cccc(Cl)c2)n1NCC1(O)OCC(O)C(O)C1O (stereo not given)

> 100 µM (inactive)
66.5 µM (inactive)

For the molecule CCCCOC(=O)CNC(=O)OC/C=C/C#CC#C/C=C/COC(=O)NCC(=O)OCCCC , give its reported GI50. > 10 µM (inactive)

====

Tested on: M19-MEL
Experimental Protocol: NCI tumour cell line growth inhibition, 48 h
Active and inactive are the calls of the source. Cut-off read from the data, not from the text of the source: active = GI50 up to about 1.1 µM and inactive = higher.
Write down the outcome that applies. Available outcomes: active, inactive

- CC(=O)N1[C@H](C(=O)O)CS[C@H]1c1ccc(F)cc1: inactive
- O=[N+]([O-])c1ccc(/C=N/C23CC4CC(CC(C4)C2)C3)cc1: inactive
- CCC1(C(=O)OC)CCc2c(OC)ccc(OC)c2C1=O (stereo unspecified): inactive
- Cc1c(/C=C2\CC/C(=C\c3[nH]c(C(=O)OC(C)(C)C)c(C)c3C)C2=O)[nH]c(C(=O)OC(C)(C)C)c1C: inactive
- CCOC(=O)Cc1cc(OC)c(OC)cc1/C(Cl)=C(\CO)c1ccc(OC)c(OC)c1: inactive

Each compound tested received a call. Report the one for Cc1c(Cl)cccc1N1C(=O)C(Cl)=C(Cl)C1=O . inactive

Each compound tested received a call. Report the one for COc1cc2cc3c4cc(OC)c(OC)cc4cc[n+]3c(C)c2cc1OC.O=C([O-])CS(=O)(=O)O . inactive

Each compound tested received a call. Report the one for COc1cc(C=O)c(-c2cc3c(cc2C=O)OCO3)c(OC)c1OC . inactive

Each compound tested received a call. Report the one for NC1=C(O)c2cccc3cccc(c23)C1=O . inactive

Each compound tested received a call. Report the one for C[C@H](NS(=O)(=O)c1ccc(NC(=O)c2ccccc2)cc1)C(=O)O . inactive

Each compound tested received a call. Report the one for COc1cc([C@@H]2c3cc4c(cc3[C@@H](NC(=O)c3ccc(OC(C)=O)cc3)C3COC(=O)[C@@H]32)OCO4)cc(OC)c1O (stereo partly specified) . inactive

Each compound tested received a call. Report the one for c1ccc2c(CNCCCCCCCCCCCCNCc3cccc4ccccc34)cccc2c1 . inactive

Each compound tested received a call. Report the one for CC(=O)/C(=N\O)C(=O)Nc1ccc(Cl)cc1Cl . inactive

Each compound tested received a call. Report the one for N#CC(C(=O)Nc1ccccc1)C1=C(Cl)C(=O)c2ccccc2C1=O (stereo unspecified) . inactive

Each compound tested received a call. Report the one for CCNC(=O)COc1ccc(Cl)c(C)c1 . inactive

Each compound tested received a call. Report the one for ClC/C=C/COC1CCCCO1 (stereo unspecified) . inactive

Each compound tested received a call. Report the one for CC1CC(c2ccccc2)=Nc2ccccc2S1 (stereo unspecified) . inactive

Each compound tested received a call. Report the one for N#Cc1cc([N+](=O)[O-])ccc1NC(=O)/C(=N\NC(=O)c1ccncc1)C(c1cnc2ccc([N+](=O)[O-])cc2n1)[N+](=O)[O-] (stereo unspecified) . active

Each compound tested received a call. Report the one for O=C(Nc1ccc(Cl)c(Cl)c1)C(=O)C(C(=O)c1ccccc1F)C1OC(=O)c2ccccc21 (stereo unspecified) . inactive

====

Provide the reported GI50 of each item.
Tested on: SK-MEL-5
Experimental Protocol: NCI tumour cell line growth inhibition, 48 h
Activity calls are given as the source filed them. No stated cut-off is given here; in the data, active = GI50 up to about 1.1 µM and inactive = higher.

• COC(=O)Nc1nc2cc(S(=O)(=O)Nc3ccccn3)ccc2[nH]1 = 42.1 µM (inactive)
• COc1cc([C@@H]2c3cc4c(cc3[C@@H](NC(=O)c3ccc(OC(C)=O)cc3)C3COC(=O)[C@@H]32)OCO4)cc(OC)c1O (some centres undefined) = 1.99 µM (inactive)
• C=CC(=O)N1C/C(=C\c2ccc(OC)cc2)C(=O)/C(=C/c2ccc(OC)cc2)C1 = 2.61 µM (inactive)
• OC(c1ccccc1)C(F)(F)c1nc2ccccc2o1 (centres undefined) = 77.1 µM (inactive)
• CC(C)C(=O)Cc1ccc2ccccc2n1 = > 100 µM (inactive)
• COc1ccc(C2CC(c3ccccc3)=Nc3c(-c4ccccc4)nnn32)cc1 (centres undefined) = 9.27 µM (inactive)
• CCCNC1=Nc2ccccc2NC(C)C1 (centres undefined) = > 100 µM (inactive)
• Cn1c2ccccc2c(=O)c2c(O)cc3c(c21)C=CC1(CCCCC1)O3 = > 10 µM (inactive)

Count: 5. Required value per item: GI50.
1. C[C@]12CCC(N3CCCC3)CC1=CC[C@@H]1[C@@H]2CC[C@]2(C)C(O)[C@H](n3ccnc3)C[C@@H]12 (some centres undefined)
2. CC1(Br)Cc2ccccc2C1=O (centres undefined)
3. O=C(SCc1cccc2ccccc12)c1ccc(Cl)cc1
4. COC(=O)N[C@H](C(=O)NC(OCc1ccccc1)C1COC(C)(C)O1)C(C)O[Si](C)(C)C(C)(C)C (some centres undefined)
5. C=C(CCC/C(C)=C/C=C/[C@@H](C)CCCc1ccoc1)C[C@@H]1OC(=O)[C@H](C)[C@@H]1O

1: 53 µM (inactive); 2: 5.71 µM (inactive); 3: 45.2 µM (inactive); 4: 26.7 µM (inactive); 5: 6.3 µM (inactive)

Count: 5. Required value per item: GI50.
1. Clc1ccccc1C1N2CCCCC2[C@@H]2c3[nH]c4ccccc4c3CCN12 (some centres undefined)
2. c1ccc2c(c1)SC1=Nc3sc4ccccc4[n+]3CN12
3. N#Cc1nc(C(O)c2ccccc2)oc1N (centres undefined)
4. O=C(OCc1ccccc1)N1CCNCCNCCN(C(=O)OCc2ccccc2)CCNCC1
5. O=S(=O)(N1CCCCN(S(=O)(=O)C(F)(F)F)CCCN(S(=O)(=O)C(F)(F)F)CCCCN(S(=O)(=O)C(F)(F)F)CCCN(S(=O)(=O)C(F)(F)F)CCCCN(S(=O)(=O)C(F)(F)F)CCCN(S(=O)(=O)C(F)(F)F)CCCCN(S(=O)(=O)C(F)(F)F)CCC1)C(F)(F)F

> 10 µM (inactive)
2.52 µM (inactive)
> 100 µM (inactive)
14.1 µM (inactive)
> 31.6 µM (inactive)

Give measured GI50 for COC(=O)N/N=C(/CCC(=O)Nc1ccc(C)c(C)c1)CC(=O)C(C)(C)C (SK-MEL-5). > 100 µM (inactive)

====

System: MDA-MB-435
Experimental Protocol: NCI tumour cell line growth inhibition, 48 h
Active and inactive are the calls of the source. Rule as the data show it: active = GI50 up to about 1.1 µM and inactive = higher.
Write down the outcome that applies. Available outcomes: 1 (active), -1 (inactive)

Answered examples (5):
* COC(=O)C1CC2CCC1(O[Si](C(C)C)(C(C)C)C(C)C)C(O)C2 (configuration not stated) | -1
* O=C(c1ccsc1)c1cc2c(s1)C(=O)c1ccsc1C2=O | 1
* CC(C)(Oc1ccc(Cl)cc1)C(=O)N(C(=O)N1CCC(c2ccccc2)CC1)c1ccccc1 | -1
* CCOC(=O)c1sc2nc(SC)nc(N3CCCCC3)c2c1N | -1
* COc1cc2cc3c4cc(OC)c(OC)cc4cc[n+]3c(C)c2cc1OC.O=C([O-])CS(=O)(=O)O | -1

Each compound tested received a call. Report the one for CCOC(=O)C1=C(C)OC2(O)C=CC(O)=C3C(=O)N(c4ccccc4)C(=O)C312 (configuration not stated) . -1

Each compound tested received a call. Report the one for CCOC(=O)N1CCN(c2nc(C)n(-c3ccccc3)c(=S)c2C#N)CC1 . -1

Each compound tested received a call. Report the one for CCOc1ccccc1/N=C\c1c2ccccc2cc2ccccc12 . -1

Each compound tested received a call. Report the one for O=c1cc(-c2ccccc2F)[nH]c2cc3c(cc12)OCO3 . 1
